Reference for the values: the supplement of paper PMC10567573

B1: MYL5 (parent)
chain: DVAGNLDYKALSYVITHGEEKEE

- Variants of: B1
- assay.name: protein stability index of a GFP-peptide fusion (GPS, HEK-293T) (PSI 1-6); higher = more stable;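 also: lentivirally expressed fusions sorted by FACS into six bins by GFP to DsRed ratio, PSI derived from sequencing read proportions per bin multiplied by bin number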
- setup.conditions: c terminus: native
Mark Y for reported protein stability index of 2 or greater; mark N for anything smaller.

Answered examples (3):
# mutation.spec, classification
records = [
    ("G18C", "N"),
    ("V2P", "N"),
    ("E23F", "Y"),
]

Check if protein stability index >= 2 (inclusive). Item: `K9D`
Y

Check if protein stability index >= 2 (inclusive). Item: `K21Y`
N
